I'd appreciate it if you could supply self-cleavage values for the items below.
B1: HDV Ribozyme (parent)
chain: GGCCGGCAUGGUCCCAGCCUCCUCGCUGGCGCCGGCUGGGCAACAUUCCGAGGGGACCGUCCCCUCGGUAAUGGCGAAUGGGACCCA

variants of: B1; experiment: self-cleavage, relative activity (ratio to wild type); higher = more cleavage; co-transcriptional
Numbers only.

Here are 5 variants together with their reported answers.
VARIANT_ANNOTATION | NUMERIC_VALUE
G34U U37G | 0.0519
A78C G80C | 0.0514
G68C A83U | 0.318
C75G G82U | 0.215
G55C U65A | 0.88

Can you give me self-cleavage for all of these, one by one?
1. C19U C41A
2. C3G C62U
3. G25U U69C

1. 0.0804
2. 0.822
3. 0.229
